Where these numbers come from: ChEMBL document CHEMBL2218924

The following molecules are shown together with reported residual activity values.
test_system: Hepatocyte growth factor receptor (Homo sapiens) (UniProt P08581)
Sequence (P08581 whole entry): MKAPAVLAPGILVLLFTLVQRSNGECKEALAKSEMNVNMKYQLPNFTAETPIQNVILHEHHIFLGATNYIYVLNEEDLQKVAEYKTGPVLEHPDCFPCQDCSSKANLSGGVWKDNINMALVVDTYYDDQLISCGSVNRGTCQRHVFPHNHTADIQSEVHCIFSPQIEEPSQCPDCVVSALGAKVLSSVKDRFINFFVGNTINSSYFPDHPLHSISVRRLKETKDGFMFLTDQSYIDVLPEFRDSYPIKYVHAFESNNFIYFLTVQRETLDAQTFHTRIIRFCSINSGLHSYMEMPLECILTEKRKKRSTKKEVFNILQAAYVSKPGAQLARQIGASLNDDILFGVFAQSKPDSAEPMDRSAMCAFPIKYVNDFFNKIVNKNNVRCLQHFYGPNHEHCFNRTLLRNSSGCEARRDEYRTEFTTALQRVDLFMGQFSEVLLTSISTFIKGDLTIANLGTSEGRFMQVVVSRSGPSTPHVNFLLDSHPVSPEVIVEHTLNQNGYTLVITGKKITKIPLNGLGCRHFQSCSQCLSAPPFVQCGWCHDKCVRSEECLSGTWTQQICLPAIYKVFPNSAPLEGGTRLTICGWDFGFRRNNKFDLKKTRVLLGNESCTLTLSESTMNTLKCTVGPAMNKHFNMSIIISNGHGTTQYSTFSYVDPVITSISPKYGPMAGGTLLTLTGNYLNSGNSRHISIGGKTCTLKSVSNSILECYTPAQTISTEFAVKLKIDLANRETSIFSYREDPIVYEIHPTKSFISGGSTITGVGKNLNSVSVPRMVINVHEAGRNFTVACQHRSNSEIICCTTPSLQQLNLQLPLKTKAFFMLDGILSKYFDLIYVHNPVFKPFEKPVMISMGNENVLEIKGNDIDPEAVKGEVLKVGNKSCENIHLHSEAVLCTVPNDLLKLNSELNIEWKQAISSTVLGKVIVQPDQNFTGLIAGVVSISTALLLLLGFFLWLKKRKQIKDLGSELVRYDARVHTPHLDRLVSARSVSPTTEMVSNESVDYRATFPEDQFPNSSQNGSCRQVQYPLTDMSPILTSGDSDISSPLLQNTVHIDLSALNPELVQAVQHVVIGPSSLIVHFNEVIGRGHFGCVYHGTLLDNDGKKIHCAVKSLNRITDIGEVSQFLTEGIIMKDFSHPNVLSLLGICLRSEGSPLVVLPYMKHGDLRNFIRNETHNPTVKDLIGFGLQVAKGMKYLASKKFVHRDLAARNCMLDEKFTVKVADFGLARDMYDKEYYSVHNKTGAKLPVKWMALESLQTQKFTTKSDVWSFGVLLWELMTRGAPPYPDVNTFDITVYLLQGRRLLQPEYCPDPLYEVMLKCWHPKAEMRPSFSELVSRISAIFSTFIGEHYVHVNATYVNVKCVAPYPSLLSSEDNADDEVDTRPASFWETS
settings: at 1 µM
Answer in %, number only, no unit symbol.

These recorded examples may help you get a feel for the data.
Cn1cnc2cc3c(Nc4cccc(Br)c4)ncnc3cc21 : 85
O=Nc1c(-c2c(O)[nH]c3ccccc23)[nH]c2ccccc12 : 86
N#C/C(=C(\N)Sc1ccc(N)cc1)c1ccccc1C(F)(F)F : 98

GET /values?item= `Nc1n[nH]c2nnc(-c3c(-c4ccccc4)nn4ccccc34)cc12` &system= Hepatocyte growth factor receptor (Homo sapiens) (UniProt P08581) returns residual activity: 78

Bench note, Hepatocyte growth factor receptor (Homo sapiens) (UniProt P08581): entry `CCC(=O)Nc1ccc2ncnc(Nc3cccc(Br)c3)c2c1` , its residual activity = 99

Measured on Hepatocyte growth factor receptor (Homo sapiens) (UniProt P08581), `CC#CC(=O)Nc1cc2c(Nc3ccc(F)c(Cl)c3)ncnc2cn1` has a documented residual activity of 111

----------
test_system: Serine/threonine-protein kinase 3 (Homo sapiens)
settings: at 10 µM
result_type: residual activity (%)
Note: unit % is implicit; provide only the numeric part.

Consider the worked cases shown below.
Oc1ccc(-c2nc(-c3ccc(F)cc3)c(-c3ccncc3)[nH]2)cc1 : 90
O=C1NC(=O)c2cc(Nc3ccc(F)cc3)c(Nc3ccc(F)cc3)cc21 : 68
COc1cc2ncnc(Nc3ccc(O)c(Br)c3)c2cc1OC : 70

The molecule listed as `Cn1cnc2cc3c(Nc4cccc(Br)c4)ncnc3cc21` has a reported residual activity of 92

----------
Listed next: entries and their corresponding residual activity.
test_system: G protein-coupled receptor kinase 5 (Homo sapiens)
settings: at 10 µM
All answers are understood in %, so give the number only.

See these solved cases before continuing.
O=c1c2ccccc2[nH]c(=S)n1CCN1CCC(=C(c2ccc(F)cc2)c2ccc(F)cc2)CC1 : 89
N#Cc1cnc2cnc(NCc3cccnc3)cc2c1Nc1ccc(F)c(Cl)c1 : 91
O=C1c2ccccc2-[n+]2ccc3c([nH]c4ccccc43)c21 : 91

# residual activity (compound: `O=C1NC(=O)c2c1c1c3ccccc3[nH]c1c1[nH]c3cc(Br)ccc3c21` ) is 89

`COc1cc2ncnc(Nc3ccc(NC(=O)c4ccccc4)cc3)c2cc1OC` has a reported residual activity of 89

# residual activity (compound: `Ic1cccc(CSc2nnc(-c3ccncc3)o2)c1` ) is 89

----------
Here the recorded residual activity is given for each entry.
test_system: Vascular endothelial growth factor receptor 1 (Homo sapiens)
settings: at 1 µM
Please reply with the bare figure in % and do not write the unit itself.

Record excerpt, results attached:
Nc1cccc(-c2cc3c(Oc4cccc(O)c4)ncnc3[nH]2)c1 : 0
CN(C)c1ccc(/C=C2\C(=O)Nc3ccccc32)cc1 : 14

Here's the next entry for you.
// residual activity value for `O=C1NC(=O)/C(=C\c2ccc3nccnc3c2)S1` : 88

----------
test_system: SRSF protein kinase 1 (Homo sapiens) (UniProt Q96SB4)
Sequence (Q96SB4 whole entry): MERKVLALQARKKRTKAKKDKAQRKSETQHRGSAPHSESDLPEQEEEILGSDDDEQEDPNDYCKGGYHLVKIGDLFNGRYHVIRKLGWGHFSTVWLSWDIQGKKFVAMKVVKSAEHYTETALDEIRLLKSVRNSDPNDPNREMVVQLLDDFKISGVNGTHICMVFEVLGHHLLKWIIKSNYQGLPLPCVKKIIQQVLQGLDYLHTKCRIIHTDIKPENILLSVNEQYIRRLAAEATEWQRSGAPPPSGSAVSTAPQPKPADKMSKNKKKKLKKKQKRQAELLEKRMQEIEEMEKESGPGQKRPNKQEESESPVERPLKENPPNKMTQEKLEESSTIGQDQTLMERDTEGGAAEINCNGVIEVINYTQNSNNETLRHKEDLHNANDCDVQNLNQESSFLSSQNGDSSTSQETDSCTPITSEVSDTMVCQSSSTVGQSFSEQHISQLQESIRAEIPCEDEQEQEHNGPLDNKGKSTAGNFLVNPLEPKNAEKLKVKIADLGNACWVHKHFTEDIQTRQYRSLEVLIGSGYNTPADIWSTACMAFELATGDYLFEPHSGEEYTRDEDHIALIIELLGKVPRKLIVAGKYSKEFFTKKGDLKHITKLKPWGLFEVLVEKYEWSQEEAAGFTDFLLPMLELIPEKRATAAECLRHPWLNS
settings: at 10 µM
result_type: residual activity (%)
Your answer is read as %, so omit the unit and give the number.

Reference set (3 entries):
Oc1c2ccccc2c2c3c(cccc13)N=N2 : 87
COc1cc2ncnc(Nc3ccc(O)c(Br)c3)c2cc1OC : 100
Cc1ccc(S(=O)(=O)/C=C/C#N)cc1 : 93

Reported SRSF protein kinase 1 (Homo sapiens) (UniProt Q96SB4) residual activity for item `O=Nc1c(-c2c(O)[nH]c3ccccc23)[nH]c2ccccc12` was 66

----------
Listed next: entries and their corresponding residual activity.
test_system: Protein kinase C epsilon type (Homo sapiens)
settings: at 1 µM
Lab book: enter the figure in %, no units written.

residual activity measured on `COc1cc2ncnc(Nc3ccc(O)c(Br)c3)c2cc1OC` = 89

Entry `CO[C@H]1C[C@@H]2CC[C@@H](C)[C@@](O)(O2)C(=O)C(=O)N2CCCC[C@H]2C(=O)O[C@H]([C@H](C)C[C@@H]2CC[C@@H](O)[C@H](OC)C2)CC(=O)[C@H](C)/C=C(\C)[C@@H](O)[C@@H](OC)C(=O)[C@H](C)C[C@H](C)/C=C/C=C/C=C/1C` , residual activity reported as 81

For `CC(=O)c1ccc(N2CCOCC2)cc1O` the compound record lists residual activity as 91

compound `CCN(CC)CCCCN1c2ccccc2Oc2ccc(Cl)cc21` , residual activity observed: 84

compound `O=C1NC(=O)c2cc(Nc3ccc(F)cc3)c(Nc3ccc(F)cc3)cc21` , residual activity observed: 67

According to the records, this compound `NC(=O)c1ccc2[nH]c(-c3ccc(Oc4ccc(Cl)cc4)cc3)nc2c1` displays residual activity of 95

Record `O=c1cc(-c2cccc3c2Sc2ccccc2S3)oc(N2CCOCC2)c1` . Reported residual activity: 91

Consider `COc1ccc(S(=O)(=O)N(CCO)c2ccccc2CN(C)C/C=C/c2ccc(Cl)cc2)cc1` . Its measured residual activity is 106

Looking up `COc1cc2ncnc(Nc3ccc(NC(=O)c4ccccc4)cc3)c2cc1OC` , I see its residual activity listed as 93

The value of residual activity measured for the compound `CCC(=O)Nc1ccc2ncnc(Nc3cccc(Br)c3)c2c1` turned out to be 79

----------
test_system: Tyrosine-protein kinase TXK (Homo sapiens)
settings: at 10 µM
result_type: residual activity (%)
Give just the numeric value; % need not be written.

Consider the following illustrative entries.
Oc1ccc(Nc2nc(-c3ccc(Cl)cc3)cs2)cc1 : 79
CO[C@H]1[C@@H](OC)C[C@H](C)[C@@H](OC)C2=CC(=O)C=C(NC(=O)/C(C)=C/C=C/[C@H](OC)[C@@H](OC(N)=O)/C(C)=C/[C@@H]1C)C2=O : 103

response.value for `CCN(CC)C(=O)c1ccc(Nc2nc(OCC3CCCCC3)c3nc[nH]c3n2)cc1` (field: residual activity) = 5

Reported residual activity of `CC(C)n1cnc2/c(=N/c3cccc(Cl)c3)nc(NCCO)[nH]c21` : 37

The molecule identified as `O=c1c2ccccc2[nH]c(=S)n1CCN1CCC(=C(c2ccc(F)cc2)c2ccc(F)cc2)CC1` registered its residual activity at 80

The recorded residual activity for `C[C@@H](N)[C@H]1CC[C@H](C(=O)Nc2ccncc2)CC1` is 94

Notebook: `COc1ccc(OC)c2c(=S)c3ccccc3[nH]c12` , residual activity read as 86

The molecule listed as `Cc1nc(-c2ccccc2)c(-c2ccncc2)o1` has a reported residual activity of 88

Reported residual activity for `COc1cc2ncnc(Nc3ccc(NC(=O)c4ccccc4)cc3)c2cc1OC` was 82

Record `O=[N+]([O-])c1ccc(-c2nc(-c3ccc(F)cc3)c(-c3ccncc3)[nH]2)cc1` . Reported residual activity: 66

residual activity reading for `CNc1cc2c(Nc3cccc(Br)c3)ncnc2cn1` : 64

In plain terms, `COc1ccc(S(=O)(=O)N(CCO)c2ccccc2CN(C)C/C=C/c2ccc(Cl)cc2)cc1` has a documented residual activity of 67

Reported residual activity ( `COc1ccc(C(=O)Nc2sc3c(c2C(N)=O)CCCC3)cc1OC` ) = 73

Per the record, `O=Nc1c(-c2c(O)[nH]c3ccccc23)[nH]c2ccccc12` has residual activity of 11

Lab note: measured residual activity of `Cc1ccc(NC2=CC(=O)c3sc(C)nc3C2=O)cc1` was 83

Please fill in: residual activity reported for `Nc1cccc(-c2cc3c(Oc4cccc(O)c4)ncnc3[nH]2)c1` = 3

So for `CO[C@@H]1[C@H](N(C)C(=O)c2ccccc2)C[C@H]2O[C@]1(C)n1c3ccccc3c3c4c(c5c6ccccc6n2c5c31)C(=O)NC4` , the logged residual activity turned out to be 69

----------
test_system: Testis-specific serine/threonine-protein kinase 1 (Homo sapiens) (UniProt Q9BXA7)
Sequence (whole entry): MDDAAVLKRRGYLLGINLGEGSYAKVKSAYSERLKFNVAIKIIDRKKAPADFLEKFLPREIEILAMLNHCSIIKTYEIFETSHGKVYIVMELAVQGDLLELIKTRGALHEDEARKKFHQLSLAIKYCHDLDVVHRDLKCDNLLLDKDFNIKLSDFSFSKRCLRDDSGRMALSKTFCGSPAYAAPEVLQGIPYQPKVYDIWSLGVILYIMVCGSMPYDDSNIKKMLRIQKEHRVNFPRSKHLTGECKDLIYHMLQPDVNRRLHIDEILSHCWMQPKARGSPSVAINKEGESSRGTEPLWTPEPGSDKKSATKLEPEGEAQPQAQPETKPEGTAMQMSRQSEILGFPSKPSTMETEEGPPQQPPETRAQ
settings: at 10 µM
Entry flag: Fulfilled if residual activity reaches 90%; Not fulfilled if it does not.

Reference set, count: 4
Oc1ccc(Nc2nc(-c3ccc(Cl)cc3)cs2)cc1 : Not fulfilled
Oc1n[nH]c2nnc(-c3c(-c4ccccc4)nn4ccccc34)cc12 : Fulfilled
COc1ccc(OC)c2c(=S)c3ccccc3[nH]c12 : Fulfilled
COc1cc2ncnc(N3CCN(C(=O)Nc4ccc(Oc5ccccc5)cc4)CC3)c2cc1OC : Not fulfilled

Can `c1ccc(-c2n[nH]c3c2oc2ccccc23)cc1` be said to have residual activity at or above 90%?
Not fulfilled
